test: Cytotoxic Profiling in HEK 293 Cell Line of Diverse Libraries Using Quantitative High-Throughput Screening; settings: HEK 293 viability, ATP luminescence (CellTiter-Glo), 48-72 h; series mostly up to 115 µM; note: nearly all actives have a fitted effect of over 60% in size
Out of some 94,000 compounds screened, about 6,200 (6.6%) were called active. Inconclusive results (about 31%) are left out. Calls come from the whole dose curve; as a rule, active = well fitted inhibition curve with a large enough effect; inconclusive = small, poorly fitted or top-dose-only effect; inactive = flat fitted curve, though single readings scatter. Shown is part of a subset that was picked to be rich in actives.
Outcome codes: 1 (active), 0 (inactive)

> print(dat)
                                    compound  cat
 1  COc1cccc(C(=O)N2CCc3nc(C(C)C)nc(-c4ccc(Cl)cc4)c3C2)c1    1
 2  O=C(c1ccccc1)N1CCN(C(=O)c2nc3cccnc3n(C3CC3)c2=O)CC1    0
 3      Cc1noc(C)c1-c1cc(-c2cncnc2)cn2cncc12    0
 4  O=C(NC1CC1)c1ccc(CC2CCN(C(=O)c3ccccn3)CC2)cc1    0
 5  Fc1ccccc1-c1n[nH]c2c1CN(Cc1cccc3c1OCO3)CC2    1
 6  COc1ccc(CCC(=O)N2CCCC(c3nc(-c4cccnc4)no3)CCNC(=O)CC2)cc1 (stereo not given)    0
 7  Cc1ncsc1CCC(=O)N[C@@H]1COCC[C@@H]1Oc1cccc(F)c1    0
 8  O=C(c1cccc(N2CCNC2=O)c1)N1CC(=O)N(C2CCCCC2)CC(OCc2ccccc2)C1 (stereo not given)    0
 9  Cc1ccncc1C(=O)N1[C@@H]2CC[C@H]1CC(NC(=O)c1ccc(F)cc1)C2 (stereo not given in full)    0
10  COc1ccc(C(=O)N2CCc3nc(C4CC4)nc(-c4ccc(Cl)cc4)c3C2)cc1    0

----------
Experiment: Cytotoxic Profiling in HEK 293 Cell Line of Diverse Libraries Using Quantitative High-Throughput Screening; note: nearly all actives have a fitted effect of over 60% in size
Settings: HEK 293 viability, ATP luminescence (CellTiter-Glo), 48-72 h; series mostly up to 115 µM
Description: Cell-based phenotypic screening is a commonly used approach to discover biological pathways, novel drug targets, chemical probes and high-quality hit-to-lead molecules. Many hits identified from high-throughput screening campaign are ruled out through a series of follow-up potency, selectivity/specificity, and cytotoxicity assays. […]
Hit rate of the full screen: of about 94,000 compounds, about 6,200 (6.6%) were called active. Roughly 31% stayed inconclusive and do not appear here. The call rests on the fitted dose curve; in most records, active means well fitted inhibition curve with a large enough effect; inconclusive means small, poorly fitted or top-dose-only effect; inactive means flat fitted curve, though single readings scatter. The entries come from a sample that favours actives as a whole.
Outcomes: label 1 = active, label 0 = inactive

> print(dat)
                                   molecule      cat
1  Cn1cccc1C(=O)N[C@H]1C[C@@H](C(=O)O)N(C(=O)CSCC(=O)N2C[C@@H](NC(=O)c3cccn3C)C[C@H]2C(=O)O)C1  label 0
2  Cn1cnc(S(=O)(=O)N2CCOCCNC(=O)[C@@H]3CCC[C@@H]32)c1  label 0
3  COCCC1(CO)CCCN(C(=O)Cn2cc(C)c(=O)[nH]c2=O)C1 (centres undefined)  label 0
4  COc1ccc(NC(=O)N2CCCC(Cc3noc(-c4ccccc4)n3)C2)cc1 (centres undefined)  label 1
5  COCCCNC(=O)N1CCC(Cc2noc(-c3ccncc3)n2)C1 (centres undefined)  label 0
6  CS(=O)(=O)c1ccc(N2CCN(C(=O)[C@H]3CC[C@@H](N)C3)CC2)c(F)c1  label 0
7  Cc1cc(C(=O)N2CCCC(Cc3noc(-c4cccnc4)n3)C2)nn1C (centres undefined)  label 0
8  O=C(c1ccccc1F)N1CCC2(CC1)N(c1ccccc1)C(=O)CS2(=O)=O  label 0
9  CC(=O)N1CCCN(C(=O)c2cnc3c(c2)N(C(=O)Cc2ccc(C(C)C)cc2)CCC3)CC1  label 0

----------
Assay: Cytotoxic Profiling in HEK 293 Cell Line of Diverse Libraries Using Quantitative High-Throughput Screening; note: nearly all actives have a fitted effect of over 60% in size
Conditions: HEK 293 viability, ATP luminescence (CellTiter-Glo), 48-72 h; series mostly up to 115 µM
Source text: Cell-based phenotypic screening is a commonly used approach to discover biological pathways, novel drug targets, chemical probes and high-quality hit-to-lead molecules. Many hits identified from high-throughput screening campaign are ruled out through a series of follow-up potency, selectivity/specificity, and cytotoxicity assays. […]
The campaign covered roughly 94,000 compounds. About 6,200 (6.6%) were called active. Another 31% or so got no clear call; they are omitted. The call rests on the fitted dose curve; in most records, active means well fitted inhibition curve with a large enough effect; inconclusive means small, poorly fitted or top-dose-only effect; inactive means flat fitted curve, though single readings scatter. Shown is part of a subset that was picked to be rich in actives.
Outcomes: 1 (active), -1 (inactive)

> print(dat)
                                    compound  cat
 1  O=C(c1ccccc1F)N1CCC(c2nn(-c3ccc(Cl)cc3)c(=O)[nH]2)CC1    1
 2               Cc1ccc(CN2CCOCCNC(=O)CC2)o1   -1
 3  CN1[C@@H](CCC(=O)NCc2ccccc2)CNC(=O)[C@@H]2[C@H]1CCN2Cc1csnn1   -1
 4  O=C(c1cccnc1)N1CCC(c2nnc(Cn3cccn3)n2C2CC2)CC1   -1
 5  COc1ccccc1C(O)c1nc(Nc2ccc(C(F)(F)F)cc2)n[nH]1 (stereo unspecified)    1
 6   CN1Cc2ncnc(NCc3cccs3)c2CN(c2ccccc2)C1=O   -1
 7  CNC(=O)[C@@H]1CN(C(=O)Cn2c(=O)oc3ccccc32)C[C@H]1c1n[nH]c(C)n1   -1
 8         O=C(c1ccc2nnc(C3CC3)n2c1)N1CCOCC1   -1
 9  COc1cncc(-c2cccc(COc3ccc4c(cnn4CC[S+](C)(=O)[O-])c3)c2)c1    1
10  COc1cccc(Nc2n[nH]c(C(O)c3cccc(C(F)(F)F)c3)n2)c1 (stereo unspecified)    1
11  CC1(C)[C@H](Cc2cc(CC3CCCCC3)on2)C[C@@H]1NC1CCOCC1    1
12  FC(F)(F)c1ccc(CN2CCn3c(nnc3-c3ccccc3)C2)cc1    1
13           O=C(NCc1c[nH]c2ncccc12)c1ccccn1   -1
14  O=C(Cn1nc2c(cc1=O)CCCC2)Nc1nc(-c2ccc3c(c2)OCO3)cs1   -1
15        O=C(O)CCNC(=O)Cn1nc2c(cc1=O)CCCCC2   -1
16  Cc1ccc(C(=O)N2CCC(c3nn(-c4ccccc4)c(=O)[nH]3)CC2)cc1   -1
17  CC(C)NC(=O)NC1CCN(c2ccc3nnc(-c4ccccc4)n3n2)C1 (stereo unspecified)   -1
18  CCOC(=O)c1ccc(NC(=O)CCn2ccn3nc4c(c3c2=O)CCCC4)cc1   -1
19  O=C(c1ccc(CO)o1)N1CCC2(CC1)[C@H](O)C[C@@H]2OCCO   -1
20  COc1ccc(CC(=O)N2CCC(C(=O)N3CCC(N4Cc5ccccc5C4=O)CC3)CC2)cc1   -1
21  O=C(CCn1ccn2nc3c(c2c1=O)CCCC3)Nc1ccc(Cl)c(C(F)(F)F)c1    1

----------
assay: Cytotoxic Profiling in HEK 293 Cell Line of Diverse Libraries Using Quantitative High-Throughput Screening; details: HEK 293 viability, ATP luminescence (CellTiter-Glo), 48-72 h; series mostly up to 115 µM; note: nearly all actives have a fitted effect of over 60% in size
In all, about 94,000 compounds went through this assay and about 6,200 (6.6%) were called active. Inconclusive results (about 31%) are left out. The call rests on the fitted dose curve; in most records, active means well fitted inhibition curve with a large enough effect; inconclusive means small, poorly fitted or top-dose-only effect; inactive means flat fitted curve, though single readings scatter. The full list was thinned out, with actives kept by preference.
Outcome codes: True for active, False for inactive

> print(dat)
                                    compound    cat
 1  CC1=C[C@@H](CNS(=O)(=O)c2cccc(C#N)c2)[C@H](C(C)C)C[C@H]1CC(=O)N(C)Cc1cccnc1   True
 2  COc1ccc(-c2nc(C)nc3c2CN([S+](C)(=O)[O-])CC3)cc1  False
 3  O=C(c1cccc(O)c1)N1CCNc2cnc(Nc3cccc(F)c3)nc2C1   True
 4  Cc1oc(-c2cccc(Oc3ccccc3)c2)nc1CN1CCOC(CCN)C1 (stereo unspecified)   True
 5  CN(Cc1ccccc1)C(=O)C[C@@H]1O[C@H](CNS(=O)(=O)c2ccc(Cl)cc2)[C@@H](O)[C@H]1O  False
 6  CCCn1cnc2c1CN(S(=O)(=O)c1ccc(C#N)cc1)[C@H](C(=O)OC)C2  False
 7                     CCCC(=O)N(C)CC1CCOCC1  False
 8  O=C(c1ccc(N2CC3CC(C2)[C@H]2CCCC(=O)N2C3)nc1)N1CCCCC1 (stereo partly specified)  False
 9  CC(C)CNC(=O)C1Cn2cccc2C(=O)N1CC(C)C (stereo unspecified)  False
10  CN(Cc1cccc2ccccc12)C1CCc2ccccc21 (stereo unspecified)  False
11  CN1C[C@H](NS(C)(=O)=O)CCC[C@@H](C(=O)N(C)Cc2cccnc2)CC1=O  False
12  COc1ccc(-c2cccc(C(=O)N3CCC(NC(=O)c4ccc(C(F)(F)F)cc4)CC3)c2)nn1   True
13  Cn1cnc(S(=O)(=O)N2CCC(c3noc(-c4ccccc4)n3)C2)c1 (stereo unspecified)  False
14  C#CCNC(=O)C1CN(c2ccc(OC)cc2)C(=O)N1 (stereo unspecified)  False
15  COc1ccc(-c2nc(CN3CCOC(CN)C3)c(C)o2)c2ccccc12 (stereo unspecified)   True
16  CCn1cnnc1CC1CCN(C(=O)C2CCN(Cc3nc(-c4cccc(C)c4)oc3C)CC2)CC1  False
17  Cc1oc(-c2cccc(Cl)c2)nc1CN1CCCC(C(N)=O)C1 (stereo unspecified)  False
18  CC1(c2noc(C3CCOCC3)n2)CCN(Cc2c(F)cccc2Cl)CC1  False
19  COc1ccc(S(=O)(=O)N2CCC(N(C(=O)C3CC3)C3CCOCC3)CC2)cc1  False
20   CN(C)C[C@@H]1CN(C)C[C@H]1NC(=O)c1ccnnc1  False
21  COc1ccc(-c2nc(C3CC3)nc3c2CCN([S+](=O)([O-])c2ccccc2)CC3)cc1  False

These entries and their values trace back to PubChem BioAssay AID1345083.
